# key: entry, value: MIC
Test system: Curvularia lunata
PROCEDURE TEXT: Antifungal activity against Curvularia lunata assessed as inhibition of fungal growth by CLSI based microdilution method
Format: functional
PROPERTY MEASURED: MIC

| MOLECULE | PROPERTY MEASURED | REPORTED MEASUREMENT |
| --- | --- | --- |
| CC1=C[C@@H](O)[C@H]2[C@](O)(CC[C@]3(O)C(=O)c4c(O)cccc4[C@H](O)[C@@]23O)C1 | MIC | > 138 µM |
| CC1=C[C@@H](O)[C@@H]2C3=C(CC[C@]2(O)C1)C(=O)c1c(O)cccc1C3=O | MIC | > 150 µM |
| Cc1cc(O)c2c(c1)CCC1=C2C(=O)c2cccc(O)c2C1=O | MIC | > 150 µM |
| C[C@@H]1[C@H](O)[C@@H](C)/C=C/C=C/C=C/C=C/C=C/C=C/C=C/[C@H](O[C@@H]2O[C@H](C)[C@@H](O)[C@H](N)[C@@H]2O)C[C@@H]2O[C@](O)(C[C@@H](O)C[C@@H](O)[C@H](O)CC[C@@H](O)C[C@@H](O)CC(=O)O[C@H]1C)C[C@H](O)[C@H]2C(=O)O [AMPHOTERICIN B] | MIC | 1.7 µM |
| CC1=CC(=O)[C@@H]2[C@H]3[C@H](CC[C@]2(O)C1)C(=O)c1c(O)cccc1[C@@H]3O | MIC | > 150 µM |
| CC1=C[C@@H]2O[C@]34CC[C@](O)(C1)[C@H]2[C@]3(O)[C@@H](O)c1cccc(O)c1C4=O | MIC | > 145 µM |

* * *

Test system: Curvularia lunata
PROCEDURE TEXT: Antifungal activity against Curvularia lunata assessed as inhibition of fungal growth by CLSI based microdilution method
Assay type: functional

| COMPOUND | SYSTEM | MIC |
| --- | --- | --- |
| Cc1ccc2c3c(ccc2c1)C(=O)c1c(O)cccc1C3=O | Curvularia lunata | > 150 µM |
| Cc1cc(O)c2c3c(ccc2c1)C(=O)c1c(O)cccc1C3=O [TETRANGULOL] | Curvularia lunata | > 150 µM |
| CC1=CC(=O)[C@@H]2C3=C(CC[C@]2(O)C1)C(=O)c1c(O)cccc1C3=O | Curvularia lunata | > 150 µM |

Hey, just so you know, these numbers are from ChEMBL document CHEMBL4828775.
